Data origin: PubChem BioAssay (NCI)

Exercise: for every item that follows, state its recorded GI50.
Tested on: MCF7 breast
Test: NCI tumour cell line growth inhibition, 48 h

compound	GI50
C=C(C)[C@@H]1CC[C@]2(CO)CC[C@]3(C)[C@H](CC[C@@H]4[C@@]5(C)CCC(NCCc6ccc(O)cc6)C(C)(C)[C@@H]5CC[C@]43C)[C@@H]12 (stereo not given in full)	0.912 µM
NC1=NCCN1CC(=O)O	> 10000 µM
O=C(NN=C1CCCCC1)c1[nH]c2ccc(F)cc2c1-c1ccccc1	26.8 µM
COC(=O)/C=C/c1cn(C(C)=O)c2ccc(Br)cc12	15.7 µM
CCCCCCc1nc2nc(Cl)c(Cl)nc2[nH]1	4.08 µM

Hi! Can you tell me GI50 for each of these compounds?
1. COc1ccc(-c2nc(N3CCN(C(=O)C4CCCCC4)CC3)c3c4c(sc3n2)CCCC4)cc1
2. C/C(=C\COc1c2c(cc3c1CCO3)OC1(C=C2)OC(CC/C(C)=C/COc2c3ccoc3cc3oc(=O)ccc23)C(C)(C)O1)CCC(O)C(C)(C)O (stereo not given)
3. C=C1C(=O)O[C@@H]2C1C[C@@H](O)C(=C)CC/C=C(\C)CCC[C@H](C)[C@H]2OC(C)=O (stereo not given in full)
4. O=C1c2ccccc2-c2c1c1c(O)cccc1n2-c1ccccc1
5. N#CC1=C(N)NC(=S)NC12Nc1ccccc1N2
6. C=C(CN1CCN(c2cccc(C(F)(F)F)n2)CC1)c1ccc(C(=S)Nc2ccccc2N)cc1
7. CC(=O)[C@@]1(O)[C@H](C)C[C@H]2[C@@H]3C=C(C)C4=Cc5c(cnn5-c5ccccc5)C[C@]4(C)[C@H]3[C@@H](O)C[C@@]21C
8. CCCCCCCCCCCCOC1C(C(CC(=O)N2CCN(c3cccc(C(F)(F)F)c3)CC2)NS(=O)(=O)c2cc(Cl)cc(Cl)c2)OC2OC(C)(C)OC21 (stereo not given)

1. 82.9 µM
2. 5.62 µM
3. 3.04 µM
4. > 100 µM
5. 22.7 µM
6. 2.87 µM
7. 1.97 µM
8. > 100 µM

Hi! Can you tell me GI50 for each of these compounds?
1. c1ccc(CN=C(NCc2ccccc2)NCc2ccccc2)cc1
2. COc1ccc(-c2cc(-c3ccc(O)cc3)nc3n[nH]c(N)c23)cc1
3. O=C1OC(c2ccccc2)(c2cc(Br)c(O)c(Br)c2)c2ccccc21 (stereo not given)
4. Cc1ncsc1-c1ccc(CNC(=O)[C@@H]2C[C@@H](O)CN2C(=O)[C@@H](NC(=O)C2(C#N)CC2)C(C)(C)C)cc1
5. Cc1cc(O)cc(C)c1/C=C/c1cncc(-c2nn[nH]n2)c1
6. O=c1c2c3c(sc2nc(N/N=C/c2ccc(Br)cc2)n1Cc1ccccc1)CCCC3
7. CNC(=O)Oc1cc(C)c(/C=C/c2cncc(C(=O)NC)c2)c(C)c1

1. 6.37 µM
2. 16.7 µM
3. 23.8 µM
4. > 100 µM
5. > 25 µM
6. 5.63 µM
7. > 25 µM
